Study System: T1, human IL-17A/F heterodimer, bacterially expressed construct (human, UniProt Q16552 40-155; Q96PD4 39-163, limits assumed)
T1 construct: IL-17A unit with N68D, IL-17F unit with N83D and C137S, both with GSEDS spacer; already in the entries
T1 sequence (Q16552 40-155 N68D limits assumed, chain 1 of 2): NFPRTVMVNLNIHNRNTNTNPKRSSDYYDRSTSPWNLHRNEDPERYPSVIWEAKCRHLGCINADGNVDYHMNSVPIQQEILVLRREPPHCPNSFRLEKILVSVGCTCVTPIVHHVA
T1 sequence (Q96PD4 other isoform, or with tags, fused parts or gaps limits assumed, chain 2 of 2): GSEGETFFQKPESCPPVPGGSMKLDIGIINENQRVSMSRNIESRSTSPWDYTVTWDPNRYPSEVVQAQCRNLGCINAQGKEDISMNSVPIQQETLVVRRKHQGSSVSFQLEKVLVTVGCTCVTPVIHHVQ
Measurement Notes: BLI, VHH immobilized, IL-17 as analyte; apparent KD with avidity; µM as printed (Table 3 uses pM)
pKd: −log10 of the molar value.
# pKd per record follows

Entry Re42F08 with C-terminal Avi-Biotin-tag, biotinylated (VHH, biotin on the C-terminal Avi-tag (BirA), not shown: C-terminal Avi-Biotin-tag) VHH: QVQLVESGGGLVKAGGSLRLSCVVSGHTSEISAMGWYRQAPGKQRELVALITSRSGDTHYSDSVKGRFSISRDNAKNTMYLQMNSLNPDDTAVYYCVHNEPGHLYMAQGTQVTVSS , pKd reported as ≥ 4.70

Entry Bm18B05 with C-terminal Avi-Biotin-tag, biotinylated (VHH, biotin on the C-terminal Avi-tag (BirA), not shown: C-terminal Avi-Biotin-tag) VHH: QVQLVESGGGLVQPGGSLRLSCAVSGRTFSSYAMGWFRRPPGKEREFVAAISWSGGDTKYADFVTDRFTISRDDAKSTVYLQMNSLKPEDTAVYYCNDMPYGLDTRMDEYEYWGQGTQVTVSS , pKd reported as ≥ 4.70

Entry Bm17B02 with C-terminal Avi-Biotin-tag, biotinylated (VHH, biotin on the C-terminal Avi-tag (BirA), not shown: C-terminal Avi-Biotin-tag) VHH: QVQLVESGGGLVNTGGSLRLSCVVSGHTSEISAMGWYRQAPGKQRELVALITSRSGDTHYSDSVKGRFSISRDNAKNTMYLQMNSLNPDDTAVYYCVHNEPGHLYMAQGTQVTVSS , pKd reported as ≥ 4.70
